All values here come from patent US9598433B2.

What pEC50 was measured for each of the following?
Test system: HCV genotype 1b (Con1) replicon in HUH-7 cells
PROTOCOL: HCV replicon luciferase reporter assay, genotype 1b
Type: cell-based
PARTICULARS: Hepatitis C virus, 72 h, genotype 1b replicon, 3 days incubation, read-out: LE_1b (EC50, range)
From the text: An HCV replicon whole cell system was established as described by Lohmann V, Korner F, Koch J, Herian U, Theilmann L, Bartenschlager R., Science 285(5424):110-3 (1999) and modified to introduce a luciferase reporter, as first described by Krieger et al (Krieger N, Lohmann V, and Bartenschlager R, J. Virol. 75(10):4614-4624 (2001)). […]
pEC50: −log10 of the molar value.

Q) Given COc1cnc(O[C@@H]2C[C@H]3C(=O)N[C@]4(C(=O)NS(=O)(=O)C5(CF)CC5)C[C@H]4/C=C\CC[C@@H](C)O[C@@H](C)[C@H](NC(=O)OC(C)(C)C(F)F)C(=O)N3C2)c2ccccc12 [Compound 2016] , state its recorded pEC50.
A) 9.00 to 9.29

Q) Given CCOc1cc2ccnc(O[C@@H]3C[C@H]4C(=O)N[C@]5(C(=O)NS(=O)(=O)C6(C)CC6)C[C@H]5/C=C\CC[C@@H](C)O[C@@H](CC)[C@H](NC(=O)OC(C)(C)C(F)(F)F)C(=O)N4C3)c2cc1F [Compound 2608] , state its recorded pEC50.
A) 9.30 to 10.00

Q) Given CC[C@@H]1OCCC/C=C\[C@@H]2C[C@@]2(C(=O)NS(=O)(=O)C2(C)CC2)NC(=O)[C@@H]2C[C@@H](Oc3ncc(OC)c4ccccc34)CN2C(=O)[C@H]1NC(=O)OC(C)(C)C(F)(F)F [Compound 1011] , state its recorded pEC50.
A) 9.00 to 9.29

Q) Given COc1ccc2c(O[C@@H]3C[C@H]4C(=O)N[C@]5(C(=O)NS(=O)(=O)C6(C)CC6)C[C@H]5/C=C\CC[C@@H](C)O[C@@H](C)[C@H](NC(=O)OC(C)(C)C(F)(F)F)C(=O)N4C3)nc3c(c2c1)CCCO3 [Compound 2306] , state its recorded pEC50.
A) 9.30 to 10.00

Q) Given COc1cc2ccnc(O[C@@H]3C[C@H]4C(=O)N[C@]5(C(=O)NS(=O)(=O)C6(C)CC6)C[C@H]5/C=C\CC[C@@H](C)O[C@@H](C)[C@H](NC(=O)OC(C)(C)C(C)(F)F)C(=O)N4C3)c2cc1F [Compound 2006] , state its recorded pEC50.
A) 9.30 to 10.00

Q) Given COc1ccc2c(O[C@@H]3C[C@H]4C(=O)N[C@]5(C(=O)NS(=O)(=O)C6(C)CC6)C[C@H]5/C=C\CC[C@@H](C)O[C@@H](C)[C@H](NC(=O)OC(C)(C)C(C)(F)F)C(=O)N4C3)nc3c(c2c1)CCCO3 [Compound 2309] , state its recorded pEC50.
A) 9.00 to 9.29

Q) Given COc1cc2ccnc(O[C@@H]3C[C@H]4C(=O)N[C@]5(C(=O)NS(=O)(=O)C6(C)CC6)C[C@H]5/C=C\CC[C@@H](C)O[C@@H](C)[C@H](NC(=O)OC(C)(C)C(F)(F)F)C(=O)N4C3)c2cc1F [Compound 2005] , state its recorded pEC50.
A) 9.30 to 10.00

Q) Given CC[C@@H]1O[C@H](C)CC/C=C\[C@@H]2C[C@@]2(C(=O)NS(=O)(=O)C2CC2)NC(=O)[C@@H]2C[C@@H](Oc3nc(OC)cc4cc(OC)ccc34)CN2C(=O)[C@H]1NC(=O)OC(C)(C)C(F)(F)F [Compound 1008] , state its recorded pEC50.
A) 9.30 to 10.00

Q) Given CCOc1cc2ccnc(O[C@@H]3C[C@H]4C(=O)N[C@]5(C(=O)NS(=O)(=O)C6(C)CC6)C[C@H]5/C=C\CC[C@@H](C)O[C@@H](CC)[C@H](NC(=O)OC(C)(C)C(F)F)C(=O)N4C3)c2cc1F [Compound 2615] , state its recorded pEC50.
A) 9.00 to 9.29
